Tested on: Sporothrix schenckii
experimental_details: Antifungal activity against Sporothrix schenckii
Assay type: functional
In this section, each of the molecules is paired with its reported MIC.
Numeric only. Scale: µg/mL

molecule | uom | MIC
CO[C@@H]1[C@@H](O)[C@H](O[C@@H]2[C@@H](O)[C@H](O[C@H]3[C@H](O)[C@@H](O)[C@H](O[C@H]4[C@H](O[C@H]5CC[C@]6(C)C7=C[C@H](O)[C@@]89C(=O)O[C@@](C)(C%10CCC(C)(C)O%10)[C@@]8(O)CC[C@@]9(C)[C@@H]7CC[C@H]6C5(C)C)OC[C@@H](OS(=O)(=O)[O-])[C@@H]4O)O[C@@H]3C)O[C@H](CO)[C@H]2O)O[C@H](CO)[C@H]1O.[Na+] (some centres undefined) [HOLOTHURIN A] | µg/mL | 25

MIC reported for this molecule C[C@H]1O[C@@H](O[C@H]2[C@H](O[C@H]3CC[C@]4(C)C5=C[C@H](O)C67C(=O)O[C@@](C)(C8CCC(C)(C)O8)[C@@]6(O)CC[C@@]7(C)[C@@H]5CCC4C3(C)C)OC[C@@H](OS(=O)(=O)[O-])[C@@H]2O)[C@H](O)[C@@H](O)[C@@H]1O.[Na+] (some centres undefined) [HOLOTHURIN B] : 1.56

MIC reported for this molecule CC(=O)O[C@H]1C[C@@]2(C)C3=CCC4C(C)(C)[C@@H](O[C@@H]5OC[C@@H](O)[C@H](O)[C@H]5O)CC[C@]4(C)C3CCC23C(=O)O[C@@](C)(CCCC(C)C)[C@@H]13 (some centres undefined) : 25

MIC reported for this molecule OC(Cn1cncn1)(Cn1cncn1)c1ccc(F)cc1F [FLUCONAZOLE] : 1
